- System: A. flavus MMX 5948
- measurement.notes: MIC/MEC assay (CLSI microdilution)
- Type: cell-based
- assay.context: Aspergillus flavus, MMX5948, 48 h, RPMI plus 0.002% Tween-80, read-out: MIC
Numbered stars: 1 amine (or outer) side, 2 acyl side, 3 side chain; on linkers, the order of the positions; unused ones are H or OH. Square brackets hold non-standard residues; d marks the D form. Peptide text beside a SMILES is read from it. X8 = CC(=O)N1CCN(c2ccc(-c3cccc(C[C@@H](C(=O)[*:2])N(C)[*:1])c3)cn2)CC1; X16 = CC(C)c1cc(-c2cccc(C[C@@H](C(=O)[*:2])N(C)[*:1])c2)ccn1; Hmp(2R,3S) = CC[C@H](C)[C@@H](O)C(=O)O; NMeVal(β-OH) = CN[C@H](C(=O)O)C(C)(C)O; NMeV = CN[C@H](C(=O)O)C(C)C
The entries below come with measured MIC values attached.
Give just the number in µg/mL; leave the unit off.

compound: CC[C@H](C)[C@@H]1NC(=O)[C@@H]2CCCN2C(=O)[C@H](Cc2cccc(-c3ccnc(C(C)C)c3)c2)N(C)C(=O)[C@H](Cc2ccccc2)NC(=O)[C@H](C(C)C)N(C)C(=O)[C@@H]([C@@H](C)CC)OC(=O)[C@H](C(C)(C)O)N(C)C(=O)[C@H](CC(C)C)NC(=O)[C@H](C(C)C)N(C)C1=O [Compound 16] (cyclo(F[X16]PI[NMeV]L[NMeVal(β-OH)][Hmp(2R,3S)][NMeV]))
MIC [µg/mL]: 1

# evaluate next
Measured MIC, CC[C@H](C)[C@@H]1NC(=O)[C@@H]2CCCN2C(=O)[C@H](Cc2cccc(-c3ccc(N4CCN(C(C)=O)CC4)nc3)c2)N(C)C(=O)[C@H](Cc2ccccc2)NC(=O)[C@H](C(C)C)N(C)C(=O)[C@@H]([C@@H](C)CC)OC(=O)[C@H](C(C)(C)O)N(C)C(=O)[C@H](CC(C)C)NC(=O)[C@H](C(C)C)N(C)C1=O [Compound 32] (cyclo(F[X8]PI[NMeV]L[NMeVal(β-OH)][Hmp(2R,3S)][NMeV])) : 1

---

- System: C. parapsilosis MMX 2323 ATCC 22019
- measurement.notes: MIC assay (CLSI microdilution)
- Type: cell-based, Candida parapsilosis
- assay.context: ATCC22019, Without Tween-80; read-out: MIC
Numbered stars: 1 amine (or outer) side, 2 acyl side, 3 side chain; on linkers, the order of the positions; unused ones are H or OH. Square brackets hold non-standard residues; d marks the D form. Peptide text beside a SMILES is read from it. X9 = CN1CCN(c2cccc(-c3cccc(C[C@@H](C(=O)[*:2])N(C)[*:1])c3)n2)CC1; X20 = CN([C@@H](Cc1cccc(-c2cnn(C3CCCC3)c2)c1)C(=O)[*:2])[*:1]; X16 = CC(C)c1cc(-c2cccc(C[C@@H](C(=O)[*:2])N(C)[*:1])c2)ccn1; X25 = CN([C@@H](Cc1cccc(-c2ccc3cccnc3c2)c1)C(=O)[*:2])[*:1]; Hmp(2R,3S) = CC[C@H](C)[C@@H](O)C(=O)O; NMeVal(β-OH) = CN[C@H](C(=O)O)C(C)(C)O; NMeV = CN[C@H](C(=O)O)C(C)C
measure: MIC (µg/mL)
Give just the number in µg/mL; leave the unit off.

compound: CC[C@H](C)[C@@H]1NC(=O)[C@@H]2CCCN2C(=O)[C@H](Cc2cccc(-c3ccc4cccnc4c3)c2)N(C)C(=O)[C@H](Cc2ccccc2)NC(=O)[C@H](C(C)C)N(C)C(=O)[C@@H]([C@@H](C)CC)OC(=O)[C@H](C(C)(C)O)N(C)C(=O)[C@H](CC(C)C)NC(=O)[C@H](C(C)C)N(C)C1=O [Compound 10] (cyclo(F[X25]PI[NMeV]L[NMeVal(β-OH)][Hmp(2R,3S)][NMeV]))
unit.abbrev: µg/mL
MIC: 1
--
compound: CC[C@H](C)[C@@H]1NC(=O)[C@@H]2CCCN2C(=O)[C@H](Cc2cccc(-c3cccc(N4CCN(C)CC4)n3)c2)N(C)C(=O)[C@H](Cc2ccccc2)NC(=O)[C@H](C(C)C)N(C)C(=O)[C@@H]([C@@H](C)CC)OC(=O)[C@H](C(C)(C)O)N(C)C(=O)[C@H](CC(C)C)NC(=O)[C@H](C(C)C)N(C)C1=O [Compound 33] (cyclo(F[X9]PI[NMeV]L[NMeVal(β-OH)][Hmp(2R,3S)][NMeV]))
unit.abbrev: µg/mL
MIC: 0.5
--
compound: CC[C@H](C)[C@@H]1NC(=O)[C@@H]2CCCN2C(=O)[C@H](Cc2cccc(-c3cnn(C4CCCC4)c3)c2)N(C)C(=O)[C@H](Cc2ccccc2)NC(=O)[C@H](C(C)C)N(C)C(=O)[C@@H]([C@@H](C)CC)OC(=O)[C@H](C(C)(C)O)N(C)C(=O)[C@H](CC(C)C)NC(=O)[C@H](C(C)C)N(C)C1=O [Compound 12] (cyclo(F[X20]PI[NMeV]L[NMeVal(β-OH)][Hmp(2R,3S)][NMeV]))
unit.abbrev: µg/mL
MIC: 1

# evaluate next
CC[C@H](C)[C@@H]1NC(=O)[C@@H]2CCCN2C(=O)[C@H](Cc2cccc(-c3ccnc(C(C)C)c3)c2)N(C)C(=O)[C@H](Cc2ccccc2)NC(=O)[C@H](C(C)C)N(C)C(=O)[C@@H]([C@@H](C)CC)OC(=O)[C@H](C(C)(C)O)N(C)C(=O)[C@H](CC(C)C)NC(=O)[C@H](C(C)C)N(C)C1=O [Compound 16] (cyclo(F[X16]PI[NMeV]L[NMeVal(β-OH)][Hmp(2R,3S)][NMeV])) on C. parapsilosis MMX 2323 ATCC 22019 gives MIC = 1
